# Test system: NQO1 activation in BEAS-2B cells
# PROTOCOL_TEXT: BEAS-2B cellular MTT assay of NQO1 activation, 0.3% HSA
# Format: cell-based
# ASSAY_SETUP: Homo sapiens, BEAS+, read-out: BEAS+ EC50
Let's look at some compounds and their measured EC50.
QUANTITY_KIND: EC50 (nM)

INSERT INTO assay_data (compound, target_under_test, quantity_kind, display_unit, censoring_qualifier, result_value) VALUES
  ('Cc1c2ccc3c1nnn3CCCCCOc1ccc(c3ccccc13)C(=O)N1CCc3ccc(cc3C1)C2CC(=O)O (stereo not shown)', 'NQO1 activation in BEAS-2B cells', 'EC50', 'nM', '=', 418),
  ('O=C(O)CC1c2ccc(nc2)OCCCCCCOc2ccc(cc2)C(=O)N2CCc3ccc1cc3C2 (stereo not shown)', 'NQO1 activation in BEAS-2B cells', 'EC50', 'nM', '=', 1430),
  ('CC(C)(C(=O)O)[C@@H]1c2ccc3c(c2)CN(CC3)C(=O)c2c(F)cc(cc2F)OCCCCCCn2nnc3cc1ccc32', 'NQO1 activation in BEAS-2B cells', 'EC50', 'nM', '=', 286),
  ('O=C(O)CC1c2ccc(nc2)OCCCCCc2cnc(nc2)C(=O)N2CCc3ccc1cc3C2 (stereo not shown)', 'NQO1 activation in BEAS-2B cells', 'EC50', 'nM', '>', 10000),
  ('Cc1c2ccc3c1nnn3CCCCCCc1cc(F)c(c(F)c1)C(=O)N1CCc3ccc(cc3C1)C2CC(=O)O (stereo not shown)', 'NQO1 activation in BEAS-2B cells', 'EC50', 'nM', '=', 6.6),
  ('Cc1c2ccc3c1nnn3CCCCCCOc1ccc(c(F)c1)C(=O)N1CCc3ccc(cc3C1)[C@H]2[C@H](C)C(=O)O', 'NQO1 activation in BEAS-2B cells', 'EC50', 'nM', '=', 201),
  ('Cc1c2ccc3c1nnn3CCCCCCOc1cnc(c(F)c1)C(=O)N1CCc3ccc(cc3C1)C2CC(=O)O (stereo not shown)', 'NQO1 activation in BEAS-2B cells', 'EC50', 'nM', '=', 429),
  ('O=C(O)CC1c2ccc3c(c2)CN(CC3)C(=O)c2cccc(c2)OCCCCCCn2nnc3cc1ccc32 (stereo not shown)', 'NQO1 activation in BEAS-2B cells', 'EC50', 'nM', '>', 10000),
  ('O=C(O)CC1c2cnc(nc2)OCCCCc2ccc(cc2Cl)C(=O)N2CCc3ccc1cc3C2 (stereo not shown)', 'NQO1 activation in BEAS-2B cells', 'EC50', 'nM', '>', 10000),
  ('Cc1c2ccc3c1nnn3CCCCCOc1ccc(c(F)c1)C(=O)N1CCc3ccc(cc3C1)[C@H]2CC(=O)O', 'NQO1 activation in BEAS-2B cells', 'EC50', 'nM', '=', 47.6),
  ('Cc1c2ccc3c1nnn3CCCCCCOc1ccc(c(F)c1)C(=O)N1CCc3ccc(cc3C1)C2CC(=O)O (stereo not shown)', 'NQO1 activation in BEAS-2B cells', 'EC50', 'nM', '=', 11.9),
  ('Cc1c2ccc3c1nnn3CCCCCOc1ccc(cc1F)C(=O)N1CCc3ccc(cc3C1)C2CC(=O)O (stereo not shown)', 'NQO1 activation in BEAS-2B cells', 'EC50', 'nM', '=', 85.9),
  ('Cc1cc2ccc1C(=O)N1CCc3ccc(cc3C1)C(CC(=O)O)c1ccc(nc1)OCCCCC2 (stereo not shown)', 'NQO1 activation in BEAS-2B cells', 'EC50', 'nM', '=', 37.8),
  ('Cc1c2ccc3c1nnn3CCCCCOc1ccc3ccc(cc3c1)C(=O)N1CCc3ccc(cc3C1)C2CC(=O)O (stereo not shown)', 'NQO1 activation in BEAS-2B cells', 'EC50', 'nM', '=', 464),
  ('Cc1c2ccc3c1nnn3CCCCCn1cc(c3ccccc31)C(=O)N1CCc3ccc(cc3C1)C2CC(=O)O (stereo not shown)', 'NQO1 activation in BEAS-2B cells', 'EC50', 'nM', '=', 1630),
  ('Cc1c2ccc3c1nnn3CCCCCCOc1ccc(c(F)c1)C(=O)N1CCc3ccc(cc3C1)[C@@H]2CC(=O)O', 'NQO1 activation in BEAS-2B cells', 'EC50', 'nM', '=', 228),
  ('Cc1cc2ccc1C(=O)N1CCc3ccc(cc3C1)[C@H](CC(=O)O)c1ccc3c(nnn3CCC/C=C/C2)c1C', 'NQO1 activation in BEAS-2B cells', 'EC50', 'nM', '=', 231),
  ('Cc1c2ccc3c1nnn3CCCOCCOc1ccc(c(F)c1)C(=O)N1CCc3ccc(cc3C1)[C@@H]2[C@H](C)C(=O)O', 'NQO1 activation in BEAS-2B cells', 'EC50', 'nM', '=', 2080),
  ('Cc1c2ccc3c1nnn3CCCCCCOc1ccc(nn1)C(=O)N1CCc3ccc(cc3C1)C2CC(=O)O (stereo not shown)', 'NQO1 activation in BEAS-2B cells', 'EC50', 'nM', '=', 1230),
  ('C[C@@H](C(=O)O)[C@H]1c2ccc3c(c2)CN(CC3)C(=O)c2c(F)cc(cc2F)OCCCCCCn2nnc3cc1ccc32', 'NQO1 activation in BEAS-2B cells', 'EC50', 'nM', '=', 2640),
  ('Cc1cc2ccc1C(=O)N1CCc3ccc(cc3C1)[C@@H](CC(=O)O)c1ccc3c(nnn3CCC/C=C/C2)c1C', 'NQO1 activation in BEAS-2B cells', 'EC50', 'nM', '=', 13.7),
  ('Cc1cc2ccc1C(=O)N1CCc3ccc(cc3C1)C(CC(=O)O)c1ccc3c(nnn3CCCCCC2)c1Cl (stereo not shown)', 'NQO1 activation in BEAS-2B cells', 'EC50', 'nM', '=', 8.3),
  ('Cc1cc2ccc1C(=O)N1CCc3ccc(cc3C1)C(CC(=O)O)c1ccc3c(nnn3CCCCCC2)c1C (stereo not shown)', 'NQO1 activation in BEAS-2B cells', 'EC50', 'nM', '=', 0.7),
  ('Cc1c2ccc3c1nnn3CCCCCc1ccc3c(c1)c(cn3C)C(=O)N1CCc3ccc(cc3C1)C2CC(=O)O (stereo not shown)', 'NQO1 activation in BEAS-2B cells', 'EC50', 'nM', '>', 10000),
  ('Cc1c2ccc3c1nnn3CCCCCOc1ccc(c(Cl)c1)C(=O)N1CCc3ccc(cc3C1)C2CC(=O)O (stereo not shown)', 'NQO1 activation in BEAS-2B cells', 'EC50', 'nM', '=', 134),
  ('Cc1c2ccc3c1nnn3CCCCCCc1ccc(cc1)C(=O)N1CCc3ccc(cc3C1)[C@H]2[C@@H](C)C(=O)O', 'NQO1 activation in BEAS-2B cells', 'EC50', 'nM', '=', 2190),
  ('Cc1cc2ccc1C(=O)N1CCc3ccc(cc3C1)[C@H](CC(=O)O)c1ccc3c(nnn3CCCCCC2)c1C', 'NQO1 activation in BEAS-2B cells', 'EC50', 'nM', '=', 24.8),
  ('Cc1c2ccc3c1nnn3CCCCCCOc1ccc(cc1F)C(=O)N1CCc3ccc(cc3C1)C2CC(=O)O (stereo not shown)', 'NQO1 activation in BEAS-2B cells', 'EC50', 'nM', '=', 55.9);
